Numbers sourced from patent US7071197B2.

assayed_system: human α1d-adrenoceptor (Homo sapiens, UniProt P25100)
Construct: expressed in transfected cells
Sequence (P25100 1-572): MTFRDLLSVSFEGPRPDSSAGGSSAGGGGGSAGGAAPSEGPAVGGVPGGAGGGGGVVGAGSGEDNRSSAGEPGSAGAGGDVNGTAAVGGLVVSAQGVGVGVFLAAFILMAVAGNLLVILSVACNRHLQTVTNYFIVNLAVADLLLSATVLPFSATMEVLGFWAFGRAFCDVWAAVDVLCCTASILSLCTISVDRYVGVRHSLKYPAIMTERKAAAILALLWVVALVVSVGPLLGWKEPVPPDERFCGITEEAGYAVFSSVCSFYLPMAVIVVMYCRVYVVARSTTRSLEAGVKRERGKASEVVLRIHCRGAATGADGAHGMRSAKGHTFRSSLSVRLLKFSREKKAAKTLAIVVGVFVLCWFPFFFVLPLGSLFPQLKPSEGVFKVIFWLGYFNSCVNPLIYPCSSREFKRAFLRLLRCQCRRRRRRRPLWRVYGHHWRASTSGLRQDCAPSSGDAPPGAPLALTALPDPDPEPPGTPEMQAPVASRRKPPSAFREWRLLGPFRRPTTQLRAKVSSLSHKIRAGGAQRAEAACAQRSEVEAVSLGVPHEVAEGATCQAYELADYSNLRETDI
assay_name: [3H]prazosin binding to cloned human α1-adrenoceptor subtypes (α1d)
particulars: selectivity: ratio of Ki at α1d and Ki at 5-HT1A
readout_type: α1d/S-HT1A

A: COc1ccccc1N1CCN(CC[C@H](c2ccccc2F)[C@H](O)C2CCCCC2)CC1
B: COc1ccccc1N1CCN(CC[C@H](c2ccccc2)[C@@H](O)C2CCCCC2)CC1 (racemic) [Ex. 5, reference compound]
C: COc1ccccc1N1CCN(CC[C@H](c2ccccc2F)[C@@H](O)C2CCCCC2)CC1
D: COc1ccccc1N1CCN(CC[C@@H](c2ccccc2F)[C@H](O)C2CCCCC2)CC1 (racemic)
Lab note: arrange the 4 molecules above from lowest to highest α1d/S-HT1A. Hello, could you send the labels back in the order asked? Thank you.
B, A, C, D
